system: P. falciparum stage V gametocytes; set-up: BacTiter-Glo ATP luminescence viability of purified stage V gametocytes in 384-well plates, per cent inhibition versus DMSO; settings: 48 h, 5 µM; inhibitor
About 3,200 (25%) of roughly 13,000 compounds showed an effect of 50% or more. This is one part of the list.
Listed below: % Inhibition values for each entry.
value-kind: % Inhibition (%)

INSERT INTO results (compound, experimental_target, value_kind, unit_of_measure, measurement) VALUES
  ('CNCCCCCCOc1ccc(CC(C)NCC(O)c2cccc(C(F)(F)F)c2)cc1 (centres unmarked) [TCMDC-131523]', 'P. falciparum stage V gametocytes', '% Inhibition', '%', 111.6),
  ('CC(Cc1ccc(C2=CCNCC2)cc1)NCC(O)c1cccc(C(F)(F)F)c1 (centres unmarked) [TCMDC-131537]', 'P. falciparum stage V gametocytes', '% Inhibition', '%', 95.16),
  ('CCc1ccc2c(c1O)CCN(C)C2Cc1ccccc1Cl (centres unmarked) [TCMDC-137165]', 'P. falciparum stage V gametocytes', '% Inhibition', '%', 18.04),
  ('CC(Cc1ccc(OCCOc2ccccc2)cc1)NCC(O)c1cccc(C(F)(F)F)c1 (centres unmarked) [TCMDC-131510]', 'P. falciparum stage V gametocytes', '% Inhibition', '%', 16.36),
  ('C[C@H](Cc1ccc(OCCCCCCOc2ccccc2)cc1)NC[C@H](O)c1cccc(Cl)c1 [TCMDC-131552]', 'P. falciparum stage V gametocytes', '% Inhibition', '%', 11.17),
  ('CC1(C)N=C(N)N=C(N)N1OCCCOc1ccc(N)cc1 [TCMDC-131698]', 'P. falciparum stage V gametocytes', '% Inhibition', '%', -10.87),
  ('CC(Cc1ccc(OCCN2CCN(c3cccc(Cl)c3)CC2)cc1)NCC(O)c1cccc(Cl)c1 (centres unmarked) [TCMDC-131533]', 'P. falciparum stage V gametocytes', '% Inhibition', '%', 18.65),
  ('O=C(Cc1cccnc1)Nc1cccc(-c2cccc(-c3nc4ccc(C(F)(F)F)cc4[nH]3)c2)c1 [TCMDC-136815]', 'P. falciparum stage V gametocytes', '% Inhibition', '%', 21.33);
